Target: unphosphorylated-BTK kinase domain (UP-BTK), GST-tagged human BTK (389-659aa) (Homo sapiens (Human))
Experiment: BTK Kinase Lanthascreen Binding Assay
Conditions: Lanthascreen binding, 60 minutes incubation; pIC50 = negative log of the IC50 in molar
Experimental: BTK Kinase Lanthascreen Binding Assay: A BTK kinase lanthascreen binding assay monitors compound binding to unphosphorylated-BTK kinase domain (UP-BTK), by competing with a fluorescent labeled tracer. […] Data were analyzed using Xlfit™ version 5.3 from ID Business Solutions (Guildford), Microsoft Excel add-in. pIC50 refers to the negative log of the IC50 in molar.
Exercise: state measured BTK_I_binding pIC50 for each of the compounds provided.
Answer field: number only, no words.

BTK_I_binding pIC50 reported for this compound CCC(=O)N[C@H]1CCC[C@H](NC(=O)c2sc3nccc4c3c2NC(=O)N4c2cnc(Oc3ccccc3)cc2C)C1 (single isomer, unassigned) : 6.38

BTK_I_binding pIC50 reading for C=CC(=O)N[C@H]1CCC[C@H]1NC(=O)c1sc2nccc3c2c1NC(=O)N3c1ccc(Oc2cccnn2)cc1C (single isomer, unassigned) [Example 424] : 7.76

BTK_I_binding pIC50 in this record for C=CC(=O)N[C@H]1CCC[C@H](NC(=O)c2sc3nccc4c3c2NC(=O)N4c2ccc(Oc3ccccc3)cn2)C1 (single isomer, unassigned) : 7.50

* * *

Molecular target: unphosphorylated-BTK kinase domain (UP-BTK), GST-tagged human BTK (389-659aa) (Homo sapiens (Human), UniProt Q06187)
Sequence (Q06187 389-659): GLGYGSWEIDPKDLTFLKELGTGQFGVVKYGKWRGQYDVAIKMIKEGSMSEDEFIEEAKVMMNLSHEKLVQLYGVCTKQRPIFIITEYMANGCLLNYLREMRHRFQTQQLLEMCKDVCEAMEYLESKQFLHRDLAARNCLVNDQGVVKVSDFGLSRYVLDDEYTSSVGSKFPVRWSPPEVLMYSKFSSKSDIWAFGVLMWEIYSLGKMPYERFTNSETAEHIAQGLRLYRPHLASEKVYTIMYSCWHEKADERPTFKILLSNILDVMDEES
Experiment: BTK Kinase Lanthascreen Binding Assay
Conditions: Lanthascreen binding, 60 minutes incubation; pIC50 = negative log of the IC50 in molar
Label rule, in plain words: BTK_I_binding pIC50 of 7 and up is criterion met, under 7 is criterion not met.

Is reported BTK_I_binding pIC50 greater than or equal to 7 here: CC(=O)N[C@@H]1CCCC[C@@H]1NC(=O)c1sc2nccc3c2c1NC(=O)N3c1ccc(Oc2ccccc2)cc1C (single isomer, unassigned)
criterion not met

In plain terms: is recorded BTK_I_binding pIC50 at least 7 for `C=CC(=O)N[C@H]1CCC[C@H]1NC(=O)c1sc2nccc3c2c1NC(=O)N3c1ccc(Oc2cccnc2C)cn1` ?
criterion met

Check if BTK_I_binding pIC50 >= 7 (inclusive). Item: CC(=O)N[C@@H]1CCC[C@H]1NC(=O)c1sc2nccc3c2c1NC(=O)N3c1ccc(Oc2ccccc2)nc1C (single isomer, unassigned)
criterion not met

Hello, I need to know if C=CC(=O)N[C@@H]1CCCC[C@H]1NC(=O)c1sc2nccc3c2c1NC(=O)N3c1cnc(CC(C)C)cc1C (single isomer, unassigned) has measured BTK_I_binding pIC50 not below 7. Thanks!
criterion not met

* * *

Target: unphosphorylated-BTK kinase domain (UP-BTK), GST-tagged human BTK (389-659aa) (Homo sapiens (Human), UniProt Q06187)
Assay: BTK Kinase Lanthascreen Binding Assay
Conditions: compound, 50 nM Tracer 236, 2 nM anti-GST antibody, 60 minutes; pIC50 = negative log of the IC50 in molar
Description: BTK Kinase Lanthascreen Binding Assay: A BTK kinase lanthascreen binding assay monitors compound binding to unphosphorylated-BTK kinase domain (UP-BTK), by competing with a fluorescent labeled tracer. […] Data were analyzed using Xlfit™ version 5.3 from ID Business Solutions (Guildford), Microsoft Excel add-in. pIC50 refers to the negative log of the IC50 in molar.
Lab note: compare BTK_I_binding pIC50 against 7. Equal or greater, write satisfied. Smaller, write not satisfied.

Check if BTK_I_binding pIC50 >= 7 (inclusive). Item: Cc1nc(Oc2ccccc2)ncc1N1C(=O)Nc2c(C(=O)N[C@@H]3CCC[C@H]3N)sc3nccc1c23 (single isomer, unassigned) [Example 256]
not satisfied

Please check the record C=CC(=O)N[C@@H]1CCC[C@H]1NC(=O)c1sc2nccc3c2c1NC(=O)N3c1ccc(Oc2ccccc2)nc1 [Example 177] and state if its BTK_I_binding pIC50 is at or above 7.
satisfied

Could you please find out whether C=CC(=O)N[C@H]1CCC[C@H]1NC(=O)c1sc2nccc3c2c1NC(=O)N3c1cc(-c2ccccc2)ccn1 [Example 189] has BTK_I_binding pIC50 that meets 7 or exceeds it?
satisfied

Item C=CC(=O)N[C@@H]1CCC[C@@H]1NC(=O)c1sc2nccc3c2c1NC(=O)N3c1ccc(Oc2ccccc2)cc1 [Example 127] with BTK_I_binding pIC50 of 7 or above?
not satisfied

Confirm if BTK_I_binding pIC50 reported for the molecule N[C@H]1CCC[C@H]1NC(=O)c1sc2nccc3c2c1NC(=O)N3c1ccc(Oc2ccccc2)nc1 [Example 265] is 7 or above.
not satisfied

Hi, just wondering whether Cc1cc(Oc2ccccc2)ccc1N1C(=O)Nc2c(C(=O)N[C@@H]3CC[C@@H](NC(=O)CN)C3)sc3nccc1c23 [Example 235] shows BTK_I_binding pIC50 of 7 or higher.
satisfied

Textbook exercise: given the entry C=CC(=O)N[C@H]1CC[C@@H](NC(=O)c2sc3nccc4c3c2NC(=O)N4c2ccc(Oc3ccccc3)cc2C)CC1 [Example 3] , state whether its BTK_I_binding pIC50 is greater than or equal to 7.
satisfied
